These measurements were taken from PubChem BioAssay AID1159580.

Test: chemical genetic growth profiling, strain panel (AID 1159580);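 further: tested at 20 µM; growth read once vehicle control cultures reached saturation at 30 °C; 1 = growth at the plate median or of vehicle wells; lower values mean less growth of the strain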
Details: S. cerevisiae deletion strains, growth OD, locus YDL185W, strain tfp1
Among all 5,500 compounds or so, about 2,000 (36%) were called active. Inconclusive results (about 18%) are left out. No stated cut-off is given here; in the data, active means normalized growth mostly below about 0.91 (no sharp cut-off); inconclusive means no clear call, values can overlap the other calls; inactive means mostly above about 0.92. This is one part of the list.
Outcome (select one): active, inactive

Answered examples (3):
>>> class("Cc1cc(O)c(C=O)c(O)c1C(=O)O")
"inactive"
>>> class("COc1cc2c(cc1OC)[C@@H]1C(=O)c3ccc4c(c3O[C@@H]1CO2)C=CC(C)(C)O4")
"inactive"
>>> class("COc1cc2c(cc1OC)C1C(=O)c3ccc4c(c3OC1CO2)CCC(C)(C)O4 (stereo not drawn)")
"inactive"

query: Which outcome was entered for the molecule CCOC(=O)c1c(C)cc(O)c(C=O)c1O in this test?
result: active

query: Given COc1cc2c(cc1OC)Cc1cc(OC)c(OC)cc1Cc1cc(OC)c(OC)cc1C2 , state the outcome it received in this test.
result: inactive

query: Which outcome was assigned to C=Cc1c2[nH]c(c1C)C=c1[nH]c(c(C)c1C=C)=CC1N=C(C=c3[nH]c(c(C)c3CCC(=O)O)=C2)C(CCC(=O)O)=C1C (stereo not drawn) in this test?
result: inactive

query: // outcome(item) with item = CCC(C)C(OC(C)=O)C(=O)OC1C(O)C2C3(C)C=CC(=O)C(C)(C)C3CC(OC(=O)C(O)C(C)C)C2(C)C23OC2CC(c2ccoc2)C13C (stereo not drawn)
result: inactive

query: Tell me the recorded outcome of this test for CN(C)CC/C=C1\c2ccccc2Sc2ccc(Cl)cc21 .
result: inactive

query: # outcome recorded in this test, key = COc1ccc2c(c1OC)C(=O)O[C@@H]2[C@H]1c2cc3c(cc2CCN1C)OCO3
result: inactive

query: # lookup: test call for CC(C(=O)O)c1cccc(C(=O)c2ccccc2)c1 (stereo not drawn)
result: inactive

query: Could you please tell me the result logged for NCC1CCC(C(=O)O)CC1 (stereo not drawn) in this assay?
result: inactive

query: I would be grateful if you could indicate the recorded call for COc1ccc2c(c1OC)C(=O)O[C@H]2[C@H]1c2cc3c(cc2CCN1C)OCO3 .
result: inactive

query: Can you look up the reported call for CC(=O)NC1SCCC1=O (stereo not drawn) for me?
result: inactive

* * *

Assay: chemical genetic growth profiling, strain panel (AID 1159580);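 further: tested at 20 µM; growth read once vehicle control cultures reached saturation at 30 °C; 1 = growth at the plate median or of vehicle wells; lower values mean less growth of the strain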
Details: S. cerevisiae deletion strains, growth OD, locus YNL067W, strain RPL9B
In all, about 5,500 compounds went through this assay and about 2,000 (36%) were called active. Roughly 18% stayed inconclusive and do not appear here. Rule as the data show it: active = normalized growth mostly below about 0.91 (no sharp cut-off); inconclusive = no clear call, values can overlap the other calls; inactive = mostly above about 0.92. The list shows a part of the results.
One label from this list, please: 1.0 for active, 0.0 for inactive

>>> class("COc1cc2c(cc1OC)C(=O)OC2")
0.0
>>> class("CCCCCCCCCCCCCCCC[N+](C)(C)C")
1.0

query: Per the records of this test, what outcome belongs to C[N+](C)(C)CCOC(N)=O ?
result: 0.0

query: Could you kindly confirm the outcome this assay logged for CC(C)CC(NC(=O)C(Cc1ccccc1)NC(=O)CNC(=O)CNC(=O)C(N)Cc1ccc(O)cc1)C(=O)O (stereo unspecified) ?
result: 0.0

* * *

Test: chemical genetic growth profiling, strain panel (AID 1159580);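 further: tested at 20 µM; growth read once vehicle control cultures reached saturation at 30 °C; 1 = growth at the plate median or of vehicle wells; lower values mean less growth of the strain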
Conditions: S. cerevisiae deletion strains, growth OD, locus YDR392W, strain spt3, hits give low values
The whole screen tested about 5,500 compounds, of which about 2,000 (36%) were called active. About 18% were inconclusive and are not listed. The list shows a part of the results.
Overview of recorded normalized growth for various compounds
API note: the answer field is a bare number with no unit suffix.

>>> reading("C[N+](C)(C)CCOC(N)=O")
1.02
>>> reading("NCCSSCCN")
1.01
>>> reading("COc1ccc2c(C)cc(=O)oc2c1")
0.978
>>> reading("CN1CCCN=C1COC(=O)C(O)(c1ccccc1)C1CCCCC1 (stereo unspecified)")
1

Value of measured normalized growth for the entry CC(=O)N[C@@H](CC(C)C)C(=O)O : 1.02

// normalized growth lookup, compound = COP(=O)(OC)OC=C(Cl)Cl , result: 1

Noted for c1ccc(N=Nc2ccccc2)cc1 : its normalized growth reads 0.992

So for CC1=C(CC(=O)O)c2cc(F)ccc2/C1=C\c1ccc(S(C)=O)cc1 (stereo unspecified) , the logged normalized growth turned out to be 0.996

Measured normalized growth of c1cncc(C2CCCCN2)c1 (stereo unspecified) : 0.99

// normalized growth lookup, compound = Cc1cccc(C)c1OCC(C)N (stereo unspecified) , result: 1.01

GET /value?item= O=C(O)C1(O)C[C@@H](O)C(O)[C@H](O)C1 (stereo partly specified) &field=normalized growth returns 0.994

Measured normalized growth, CC1CC2C3CC(F)C4=CC(=O)C=CC4(C)C3(F)C(O)CC2(C)C1(O)C(=O)CO (stereo unspecified) : 0.995

GET /value?item= NCC1CCC(C(=O)O)CC1 (stereo unspecified) &field=normalized growth returns 1
